targetUnderTest: Kv1.3 (Homo sapiens, UniProt P22001)
Construct: expressed in transfected cells
Sequence (P22001 whole entry): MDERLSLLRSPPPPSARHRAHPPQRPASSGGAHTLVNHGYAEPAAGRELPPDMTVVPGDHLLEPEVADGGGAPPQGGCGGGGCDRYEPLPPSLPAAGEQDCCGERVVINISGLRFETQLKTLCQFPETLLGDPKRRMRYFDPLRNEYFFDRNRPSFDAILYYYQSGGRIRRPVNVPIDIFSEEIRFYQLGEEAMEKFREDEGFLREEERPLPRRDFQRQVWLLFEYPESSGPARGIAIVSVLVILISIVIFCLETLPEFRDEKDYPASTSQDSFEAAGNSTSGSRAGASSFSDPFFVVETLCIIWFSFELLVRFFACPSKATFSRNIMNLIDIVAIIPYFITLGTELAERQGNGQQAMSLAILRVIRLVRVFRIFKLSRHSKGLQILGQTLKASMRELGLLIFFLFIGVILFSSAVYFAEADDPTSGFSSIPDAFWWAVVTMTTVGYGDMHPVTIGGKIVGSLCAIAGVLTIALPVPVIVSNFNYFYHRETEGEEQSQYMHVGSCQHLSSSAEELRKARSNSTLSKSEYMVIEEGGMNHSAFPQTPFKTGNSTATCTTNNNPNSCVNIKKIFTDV
procedureText: Patch clamp assay (QPatch), Kv1.3
Format: cell-based
experimentalParameters: CHO cells stably expressing human Kv1.3, read-out: Potency IC50, Kv1.3
Provide the reported pIC50 of each item.
Keep in mind that pIC50 stands for -log10 of concentration in molar terms.

query: Given the entry H-NID[Nle]RC(1)SASVEC(2)KQKC(3)LKAIGSIFGKC(1)[Nle]NKKC(2)KC(3)YPR-OH [Peptide 98] , report its measured pIC50.
result: 9.57

query: Requested read-out: pIC50. Entry: H-C(1)SASVEC(2)KQKC(3)LKAIGSIFGKC(1)MNKKC(2)KC(3)YPR-OH [Peptide 124]
result: 8.68

query: Fill blank: measured pIC50 of the substance H-NMDMRC(1)SASVEC(2)KQKC(3)LKAIGSIFGKC(1)MNGKC(2)KC(3)YPR-NH2 [Peptide 37] is ____.
result: 9.51

query: Can you look up the measured pIC50 of H-QMDMRC(1)SASVEC(2)KQKC(3)LKAIGRGFGKC(1)MNKKC(2)KC(3)YPR-OH [Peptide 2] for me?
result: 8.82

query: Entry H-V[Nle]D[Nle]RC(1)SASVEC(2)KQKC(3)LKAIGSIFGKC(1)[Nle]NKKC(2)KC(3)YPR-NH2 [Peptide 69] : reported pIC50 = ?
result: 9.49

query: Fill blank: measured pIC50 of the substance Ac-C(1)SASVEC(2)KQKC(3)LKAIGSIFGKC(1)[Nle]NKKC(2)KC(3)YPR-NH2 [Peptide 109] is ____.
result: 9.62

query: Find the recorded pIC50 belonging to H-NMDMRC(1)SASVQC(2)KQKC(3)LKAIGSIFGKC(1)MNKKC(2)KC(3)YPR-NH2 [Peptide 29] and report it.
result: 9.70

----------
targetUnderTest: Kv1.3 (Homo sapiens, UniProt P22001)
Construct: expressed in transfected cells
procedureText: Patch clamp assay (QPatch), Kv1.3
Assay type: cell-based
experimentalParameters: CHO cells stably expressing human Kv1.3, read-out: Potency IC50, Kv1.3
I'd be grateful if you could share measured pIC50 for these entries.
Note on pIC50: it is the negative log10 of concentration, concentration in mol/L.

query: # lookup: pIC50 of H-NMDMRC(1)SASVEC(2)KQKC(3)LKAIRSIFGKC(1)MNKKC(2)KC(3)YPR-NH2 [Peptide 22]
result: 9.66

query: Entry H-P[Nle]E[Nle]RC(1)SASVEC(2)KQKC(3)LAAIGSIFGKC(1)[Nle]NKKC(2)KC(3)YPR-OH [Peptide 100] : reported pIC50 = ?
result: 9.48

query: What does the data say about its pIC50? Entry: H-PIE[Nle]RC(1)SASVEC(2)KQKC(3)LAAIGSIFGKC(1)[Nle]NKKC(2)KC(3)YPR-OH [Peptide 105]
result: 9.46

query: Can you look up the measured pIC50 of H-NMDMRC(1)SASVEC(2)KQKC(3)LKAIGSIFGKC(1)MNKKC(2)HC(3)YPR-NH2 [Peptide 38] for me?
result: 9.72

query: So what does the record say about pIC50 for H-PIE[Nle]RC(1)SASVEC(2)KQKC(3)LKAIGSIFGKC(1)[Nle]NKKC(2)KC(3)YPR-OH [Peptide 99] ?
result: 9.41

query: I have this substance here, H-NMDMRC(1)SASVEC(2)AQKC(3)LKAIGSIFGKC(1)MNKKC(2)KC(3)YPR-NH2 [Peptide 31] , and I need its recorded pIC50.
result: 9.85

query: Any idea what its pIC50 is? The substance is H-NMDMRC(1)SASVEC(2)KQKC(3)LKAIGSRFGKC(1)MNKKC(2)KC(3)YPR-NH2 [Peptide 36]
result: 9.70

query: Fill in: pIC50 of H-S[Nle]D[Nle]RC(1)SASVEC(2)KQKC(3)LKAIGSIFGKC(1)[Nle]NKKC(2)KC(3)YPR-NH2 [Peptide 67] is ___
result: 9.74

query: Reported pIC50 for H-NMDMRC(1)SASVEC(2)KVKC(3)LKAIGSIFGKC(1)MNKKC(2)KC(3)YPR-NH2 [Peptide 18] : what is it?
result: 9.38

query: // lookup pIC50 for H-NMDMRC(1)SASVEC(2)KQKC(3)LKAYGSIFGKC(1)MNKKC(2)KC(3)YPR-NH2 [Peptide 59]
result: 9.47

query: Value lookup for pIC50; key = H-QMDMRC(1)SASVEC(2)KQKC(3)LKAIGSIFGKC(1)MNKKC(2)KC(3)YPR-OH [Peptide 1]
result: 9.42

query: Which pIC50 value is on record for H-P[Nle]D[Nle]RC(1)SASVEC(2)KQKC(3)LKAIGC(4)IFGKC(1)[Nle]NKKC(2)KC(3)YPC(4)-NH2 [Peptide 85] ?
result: 9.20

query: Record request: pIC50 value, item H-NMDMRC(1)SASVEC(2)KEKC(3)LKAIGSIFGKC(1)MNKKC(2)KC(3)YPR-NH2 [Peptide 32]
result: 9.55

query: Given the substance H-N[Nle]D[Nle]RC(1)SASVEC(2)KQKC(3)LKAIGSIFGKC(1)[Nle]NKKC(2)KC(3)YPR-NH2 [Peptide 41] , what is its reported pIC50?
result: 9.59

query: Using the record for H-S[Nle]DERC(1)SASVEC(2)KQKC(3)LKAIGSIFGKC(1)MNKKC(2)KC(3)YPR-NH2 [Peptide 78] , report its pIC50.
result: 9.55
